Kindly supply the reported intracellular Ca ion level-increasing activity [specific activity to Metastin (1-54)] values for the records listed here.
Biological target: hOT7T175 (Homo sapiens, UniProt Q969F8)
Construct: expressed in transfected cells
Sequence (Q969F8 whole entry L364H): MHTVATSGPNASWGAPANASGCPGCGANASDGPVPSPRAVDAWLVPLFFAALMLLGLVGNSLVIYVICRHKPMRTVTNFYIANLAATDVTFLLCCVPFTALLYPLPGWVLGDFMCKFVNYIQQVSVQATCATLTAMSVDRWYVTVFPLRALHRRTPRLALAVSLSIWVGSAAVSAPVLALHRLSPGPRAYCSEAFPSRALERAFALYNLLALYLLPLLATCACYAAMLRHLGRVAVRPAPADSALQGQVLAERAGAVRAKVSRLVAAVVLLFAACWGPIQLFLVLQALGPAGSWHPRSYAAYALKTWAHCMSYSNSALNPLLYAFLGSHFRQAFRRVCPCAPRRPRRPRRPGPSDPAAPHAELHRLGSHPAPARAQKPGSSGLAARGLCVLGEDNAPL
Test: Intracellular Ca ion level-increasing activity using FLIPR (180 seconds; specific activity to Metastin (1-54))
Type: cell-based
Settings: hOT7T175/CHO, change in intracellular calcium ion level for 180 seconds, Tables 21-23
Starred links: 1 amine or outer side, 2 acyl side, 3 side chain; linkers in the order of their positions; H or OH if unused. Non-standard residues stand in square brackets, D forms with d. Residues, ends and D or L forms follow the SMILES beside them. *: point of attachment. X11 = NC(=O)C[C@@H](CN([C@@H](Cc1c[nH]c2ccccc12)C(=O)[*:2])[*:1])N[*:3]; Butyryl(4-indol-3-yl) = O=C(CCCc1c[nH]c2ccccc12)*; X8 = O=C([C@H](Cc1ccc2ccccc2n1)N[*:1])[*:2]; Diphenylacetyl = O=C(C(c1ccccc1)c1ccccc1)*; Phe(4-F) = N[C@@H](Cc1ccc(F)cc1)C(=O)O; Arg(Me) = CNC(=N)NCCC[C@H](N)C(=O)O; Tryptamide = c1ccc2c(CCN*)c[nH]c2c1; Hydrocinnamoyl = O=C(CCc1ccccc1)*; 4Pal = N[C@@H](Cc1ccncc1)C(=O)O; d3Pal = N[C@H](Cc1cccnc1)C(=O)O; Cha = N[C@@H](CC1CCCCC1)C(=O)O; Orn = NCCC[C@H](N)C(=O)O; CO = O=C([*:1])[*:2]; azaGly = NNC(=O)O
// print number alone

Prompt: Param item = CNC(=N)NCCC[C@H](NC(=O)[C@H](CC(C)C)NC(=O)NNC(=O)[C@H](Cc1ccccc1)NC(=O)[C@@H](NC(=O)[C@H](CC(N)=O)NC(=O)[C@H](Cc1c[nH]c2ccccc12)NC(=O)[C@H](CC(N)=O)NC(=O)[C@H](N)Cc1ccc(O)cc1)[C@@H](C)O)C(=O)N[C@@H](Cc1ccccc1)C(N)=O [Compound No. 297] (H-[dY]NWNTF[azaGly]L[Arg(Me)]F-NH2) ; retrieve measured intracellular Ca ion level-increasing activity [specific activity to Metastin (1-54)].
Response: 1

Prompt: Param item = CNC(=N)NCCC[C@H](NC(=O)[C@H](CC(C)C)NC(=O)NNC(=O)[C@H](Cc1ccccc1)NC(=O)[C@H](CO)NC(=O)[C@H](CC(N)=O)NC(=O)CCCc1c[nH]c2ccccc12)C(=O)N[C@@H](Cc1ccccc1)C(N)=O [Compound No. 267] ({Butyryl(4-indol-3-yl)}-NSF[azaGly]L[Arg(Me)]F-NH2) ; retrieve measured intracellular Ca ion level-increasing activity [specific activity to Metastin (1-54)].
Response: 2

Prompt: Param item = CNC(=N)NCCC[C@H](NC(=O)[C@H](CC(C)C)NC(=O)NNC(=O)[C@H](Cc1ccccc1)NC(=O)[C@H](CO)NC(=O)[C@H](CC(N)=O)NC(=O)[C@H](Cc1ccc2ccccc2n1)NC(=O)[C@H](CC(N)=O)NC(=O)[C@H](N)Cc1ccc(O)cc1)C(=O)N[C@@H](Cc1ccccc1)C(N)=O [Compound No. 301] (H-[dY]N[X8]NSF[azaGly]L[Arg(Me)]F-NH2) ; retrieve measured intracellular Ca ion level-increasing activity [specific activity to Metastin (1-54)].
Response: 1

Prompt: Param item = CNC(=N)NCCC[C@H](NC(=O)[C@H](CC(C)C)NC(=O)NNC(=O)[C@H](Cc1ccccc1)NC(=O)[C@H](CO)NC(=O)[C@H](CC(N)=O)NC(=O)CCc1ccccc1)C(=O)N[C@@H](Cc1ccccc1)C(N)=O [Compound No. 269] (Hydrocinnamoyl-NSF[azaGly]L[Arg(Me)]F-NH2) ; retrieve measured intracellular Ca ion level-increasing activity [specific activity to Metastin (1-54)].
Response: 3

Prompt: Param item = CNC(=N)NCCC[C@H](NC(=O)[C@H](CC(C)C)NC(=O)NNC(=O)[C@H](Cc1ccccc1)NC(=O)[C@H](CO)NC(=O)[C@H](CC(N)=O)NC(=O)NCCc1c[nH]c2ccccc12)C(=O)N[C@@H](Cc1ccccc1)C(N)=O [Compound No. 279] ({Tryptamide-CO}-NSF[azaGly]L[Arg(Me)]F-NH2) ; retrieve measured intracellular Ca ion level-increasing activity [specific activity to Metastin (1-54)].
Response: 5

Prompt: Param item = CNC(=N)NCCC[C@H](NC(=O)[C@H](CC(C)C)NC(=O)NNC(=O)[C@H](Cc1ccccc1)NC(=O)[C@H](CO)NC(=O)[C@H](CC(N)=O)NC(=O)[C@H](Cc1ccncc1)NC(=O)[C@H](CC(N)=O)NC(=O)[C@H](N)Cc1ccc(O)cc1)C(=O)N[C@@H](Cc1ccccc1)C(N)=O [Compound No. 286] (H-[dY]N[4Pal]NSF[azaGly]L[Arg(Me)]F-NH2) ; retrieve measured intracellular Ca ion level-increasing activity [specific activity to Metastin (1-54)].
Response: 2

Prompt: Param item = CNC(=N)NCCC[C@H](NC(=O)[C@H](CC(C)C)NC(=O)NNC(=O)[C@H](Cc1ccccc1)NC(=O)[C@H](CO)NC(=O)[C@H](CC(N)=O)NC(=O)[C@H](CC1CCCCC1)NC(=O)[C@@H](CC(N)=O)NC(=O)[C@H](N)Cc1cccnc1)C(=O)N[C@@H](Cc1ccccc1)C(N)=O [Compound No. 290] (H-[d3Pal][dN][Cha]NSF[azaGly]L[Arg(Me)]F-NH2) ; retrieve measured intracellular Ca ion level-increasing activity [specific activity to Metastin (1-54)].
Response: 1

Prompt: Param item = CNC(=N)NCCC[C@H](NC(=O)[C@H](CC(C)C)NC(=O)NNC(=O)[C@H](Cc1ccccc1)NC(=O)[C@H](CO)NC(=O)[C@H](CC(N)=O)NC(=O)[C@H](Cc1c[nH]c2ccccc12)NC(C)=O)C(=O)N[C@@H](Cc1ccccc1)C(N)=O [Compound No. 272] (Ac-WNSF[azaGly]L[Arg(Me)]F-NH2) ; retrieve measured intracellular Ca ion level-increasing activity [specific activity to Metastin (1-54)].
Response: 2

Prompt: Param item = CC(C)C[C@H](NC(=O)CNC(=O)[C@H](Cc1ccccc1)NC(=O)[C@H](CO)NC(=O)[C@H](CC(N)=O)NC(=O)[C@H](Cc1c[nH]c2ccccc12)NC[C@H](CC(N)=O)NC(=O)[C@@H](N)Cc1ccc(O)cc1)C(=O)N[C@@H](CCCNC(=N)N)C(=O)N[C@@H](Cc1ccccc1)C(N)=O [Compound No. 295] (H-[X11](Tyr)NSFGLRF-NH2) ; retrieve measured intracellular Ca ion level-increasing activity [specific activity to Metastin (1-54)].
Response: 1

Prompt: Param item = CNC(=N)NCCC[C@H](NC(=O)[C@H](CC(C)C)NC(=O)NNC(=O)[C@H](Cc1ccccc1)NC(=O)[C@H](CO)NC(=O)[C@H](CC(N)=O)NC(=O)C(c1ccccc1)c1ccccc1)C(=O)N[C@@H](Cc1ccccc1)C(N)=O [Compound No. 268] (Diphenylacetyl-NSF[azaGly]L[Arg(Me)]F-NH2) ; retrieve measured intracellular Ca ion level-increasing activity [specific activity to Metastin (1-54)].
Response: 1

Prompt: Param item = CC(C)C[C@H](NC(=O)CNC(=O)[C@H](Cc1ccccc1)NC(=O)[C@H](CO)NC(=O)[C@H](CC(N)=O)NC(=O)[C@H](Cc1c[nH]c2ccccc12)NC(=O)[C@H](CC(N)=O)NC(=O)[C@@H](N)Cc1ccc(O)cc1)C(=O)N[C@@H](CCCN)C(=O)N[C@@H](Cc1ccccc1)C(N)=O [Compound No. 314] (H-YNWNSFGL[Orn]F-NH2) ; retrieve measured intracellular Ca ion level-increasing activity [specific activity to Metastin (1-54)].
Response: 1

Prompt: Param item = CNC(=N)NCCC[C@H](NC(=O)[C@H](CC(C)C)NC(=O)NNC(=O)[C@H](Cc1ccccc1)NC(=O)[C@H](CO)NC(=O)[C@H](CC(N)=O)NC(=O)[C@@H](NC(=O)[C@@H](CC(N)=O)NC(=O)[C@H](N)Cc1ccc(O)cc1)[C@@H](C)O)C(=O)N[C@@H](Cc1ccc(F)cc1)C(N)=O [Compound No. 316] (H-[dY][dN]TNSF[azaGly]L[Arg(Me)][Phe(4-F)]-NH2) ; retrieve measured intracellular Ca ion level-increasing activity [specific activity to Metastin (1-54)].
Response: 1
